Entry source: PubChem BioAssay

Test system: transient receptor potential cation channel C4 beta (TRPC4), mouse
Experiment Notes: activators of mouse TRPC4 channel, confirmation, cell-based, second round, Fluo4, HEK293 TRPC4beta/mu-opioid, 1 µM (AID 2461)
Assay Setup: Fluo4 calcium fluorescence, at 1 µM
Active and inactive are the calls of the source.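 The calls were made as follows: active = primary screen active and over 50% activation in each of two duplicate runs; inactive = the rest.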
Outcomes: active, inactive

Compound	Group Label
CN(CCOc1ccc(Cl)cc1)CC(O)c1ccccc1 (centres undefined)	inactive
COc1ccccc1CCC(=O)Nc1cc(S(=O)(=O)N2CCCCC2)ccc1N1CCN(C)CC1	active
Cc1nc(NCC(c2ccccc2)N(C)C)c2c(C)c(C)sc2n1 (centres undefined)	active
Cc1cc(NC(=O)CN2CCc3ccccc3C2)nc2c1c(=O)oc1ccccc12	inactive
Cc1cc(-c2ccc(C)c(S(=O)(=O)NCCCN(Cc3ccccc3)C(C)C)c2)on1	inactive
Cc1ccc(C2(O)CN(c3ccccc3)C3=[N+]2CCS3)cc1 (centres undefined)	inactive
COc1cccc(-c2nn(-c3ccccc3)cc2CN(C)C(C)c2ccncn2)c1 (centres undefined)	inactive
CCC1(c2ccc(F)cc2)NC(=O)N(CC(=O)c2cc(C)n(C3CC3)c2C)C1=O (centres undefined)	inactive
Cc1ccc(N2CCN(c3ccc(NCc4nc5ccccc5n4C)cc3)CC2)cc1	inactive
Cc1ccccc1OCC(O)Cn1c(=N)n(Cc2ccccc2)c2ccccc21 (centres undefined)	inactive
Cn1c(O)c(/C=N/NC(=O)c2cc3ccccc3cc2O)c2ccccc21	inactive
O=C(N/N=C/c1cc([N+](=O)[O-])cc(Br)c1O)C12CC3CCC(CC(C3)C1)C2	inactive
CCCCN(C)CCCNC(=O)CN1N=C(c2ccc(Cl)cc2)CCC1=O	inactive
CN(C)CCCN(C(=O)c1ccc(C(=O)c2ccccc2)cc1)c1nc2ccc(F)cc2s1	inactive
